Reference source: patent US20250270304A1

fold-change of OD 450 over negative control (BSA) values, listed per item
# testSystem: T1, Inhibin A (Homo sapiens (Human), UniProt P05111 233-366; P08476 311-426)
# T1 sequence 1: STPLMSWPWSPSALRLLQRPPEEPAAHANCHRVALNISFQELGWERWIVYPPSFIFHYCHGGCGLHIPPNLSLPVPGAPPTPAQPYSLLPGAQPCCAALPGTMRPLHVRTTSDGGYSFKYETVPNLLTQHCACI
# T1 sequence 2: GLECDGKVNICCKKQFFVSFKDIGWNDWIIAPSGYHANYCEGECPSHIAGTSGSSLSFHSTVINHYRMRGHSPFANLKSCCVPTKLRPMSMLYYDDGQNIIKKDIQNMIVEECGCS
# protocolDetails: ELISA, coated antigen, OD450
# Experimental: Antibodies were re-expressed in 40 mL cultures of Expi293 cells and purified using protein G magnetic sepharose beads (Cytiva, Marlborough, MA) to provide larger quantities for secondary screening. Secondary screening included dose responses in both functional assays described above (SMAD nuclear localization and fibroblast activations assays) as well as in binding assays to the same antigens listed in Table 3. […]
Answer with a number only, understood to be in fold.

| binder | units | quantitativeReadout |
| --- | --- | --- |
| AB449 (antibody, IgG1, V domains shown) VH: QVQLQESGPGLVKPSQTLSLTCTVSGLSLSNAKMGVNWIRQPPGKGLEWIGYVSTTGTTDYNPSLKSRVTMSVDTSKNQFSLKVNSVTAADTAVYYCARAGYPDVWGKGTTVTVSS VL: DIQMTQSPSSVSASVGDRVTITCRASQGISRDLAWYQQKPGKAPKLLIYAASTLVSGVPSRFSGSGSGTDFTLTISSLQPEDFANYYCQQYVSAPPYTFGGGTKVEIK | fold | 0.65 |

# context switch: different binder, same fold-change of OD 450 over negative control (BSA)
Reported fold-change of OD 450 over negative control (BSA) of AB330 (antibody, IgG1, V domains shown, also called mAb 330) VH: QVQLVQSGAEVKKPGASVKVSCKVSGYPSPATISWVRQAPGKGLEWMGWMNPKSGYTNYAQKFQGRVTMTEDTSTDTAYMELSSLKSEDTAVYYCATLHGSGLAFDIWGQGTMVTVSS VL: DIQMTQSPSSVSASVGDRVTITCRASQDIKSDLAWYQQKPGKAPKLLIYRASARESGVPSRFSGSGSGTDFTLTISSLQPEDFANYYCQQYRSFPWSFGGGTKVEIK : 0.97
